test system: SK-OV-3 ovarian; assay: NCI tumour cell line growth inhibition, 48 h
Readout Label: TGI

| Molecule | Data Value |
| --- | --- |
| C/C=C(\CCOS(=O)(=O)c1ccc(C)cc1)[Si](C)(C)C | > 100 µM |
| Oc1c(Br)cc(/C=C/c2cccc(/C=C/c3cc(Br)c(O)c(Br)c3)n2)cc1Br | 62.9 µM |
| O=C(NNC(=S)NCc1ccccc1)c1csc(NC(=S)NC2CCCCC2)n1 | > 100 µM |
| COc1ccc(NC(=O)C(C)Oc2ccc(OCC3CCCCC3)cc2)cc1 (stereo not given) | > 100 µM |
| NC1=NN(c2ccccc2)C(=O)C1C(=O)C(=O)Nc1nccs1 (stereo not given) | > 100 µM |
| CCCCCCCCCNC(=O)/C=C/c1ccc(O)c(O)c1 | 49.5 µM |
| CCN(CCCl)c1cc(CN(C)C)cc(NC(=O)C23CCC(C(=O)Nc4cc(CN(C)C)cc(N(CC)CCCl)c4)(CC2)CC3)c1 | 4.24 µM |
| CCOC(=O)C1=C(C)N(Cc2ccc(Cl)cc2Cl)C2(O)C=CC(=O)C3=C(O)c4ccccc4C(=O)C312 (stereo not given) | 91.7 µM |
| O=C(/C=C/C12c3ccccc3C(c3ccccc31)C1C(=O)NC(=O)C12)c1ccc(F)cc1 (stereo not given) | 8.03 µM |
| Cc1cccc2c1CCC21OC(=O)c2c1ccc1ccccc21 (stereo not given) | > 100 µM |
| O=C(NO)[C@@H](Cc1ccccc1)NS(=O)(=O)c1ccc(-c2ccccc2)cc1 | > 25 µM |
| COC(=O)c1cc2c3ccccc3[nH]c2c2sccc12 | > 100 µM |
| Clc1ccc(C[P+]2(c3ccccc3)CCCCC2)cc1 | > 100 µM |
| C=C1C(=O)O[C@H]2[C@H]1CC/C(COC(=O)C(C)c1ccc(CC(C)C)cc1)=C\CC[C@@]1(C)O[C@@H]21 (stereo not given in full) | 21.4 µM |
| COc1cc(C(=O)CC2OC(=O)C(Cl)=C2Cl)ccc1Cl (stereo not given) | > 100 µM |
| OC(c1ccc2c(c1)OCO2)c1ccc2c(c1)OCO2 | > 100 µM |
| O=C1c2ccccc2-c2c1c1c(O)cccc1n2Cc1ccccn1 | > 100 µM |
| CCCCCCCCCCCCCCCCCCNc1nc(=O)n(C2CC(O)C(COP(=O)(O)OCC3OC(n4ccc(N)nc4=O)C(O)C3O)O2)cc1F (stereo not given) | > 100 µM |
| CC(CN(C)C)Oc1ccccc1NC1=C(Cl)C(=O)C(Nc2ccccc2OC(C)CN(C)C)=C(Cl)C1=O (stereo not given) | 5.43 µM |
| CCn1c(-c2nonc2N)nc2c(C#CC(C)(C)O)ncc(OC[C@H]3CCCNC3)c21 | > 82.6 µM |

Hello, the source for this data is PubChem BioAssay (NCI), in case you need it.
